# targetUnderTest: T1, HIS-tagged human NKG2D (human, UniProt P26718 73-216, limits assumed)
# T1 construct: Captured on HIS1K biosensors; not shown: HIS tag
# T1 sequence (looked up): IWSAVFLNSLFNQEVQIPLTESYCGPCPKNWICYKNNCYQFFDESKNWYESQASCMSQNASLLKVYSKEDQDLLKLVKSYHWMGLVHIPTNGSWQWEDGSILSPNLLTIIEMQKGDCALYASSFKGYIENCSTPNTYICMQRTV
# assayOverview: Octet (BLI): His-tagged human NKG2D captured on HIS1K biosensors, dipped into 100 nM bivalent mAb
measurementType: kon (M⁻¹ s⁻¹)
Write the value in M⁻¹ s⁻¹ as a bare number.

Consider the worked cases shown below.
INSERT INTO assay_data (binder, outputunit, obsvalue) VALUES
  ('XENP27614 (antibody, human IgG1, kappa, V domains shown, humanized bivalent anti-NKG2D mAb, IgG1 with ablation variants; also called mAb A[NKG2D]_H2L2_IgG1_PVA_/S267K) VH: QVQLQESGPGLVKPSETLSLTCTVSGFSLTSYGVHWIRQPPGKGLEWIGVIWAGGSTNYNPSLKSRVTISKDNSKSQVSLKLSSVTAADTAVYYCARGGYEGAAWFGYWGQGTLVTVSS VL: DIQLTQSPATLSLSPGERATLSCRASSSVSYMHWYQQKPGQSPRPLIYATSNLASGVPARFSGSGSGTDYTLTISSLEPEDFAVYYCQQWNSNPLTFGAGTKVEIKR', 'M⁻¹ s⁻¹', 200000),
  ('XENP27603 (antibody, human IgG1, kappa, V domains shown, humanized bivalent anti-NKG2D mAb, IgG1 with ablation variants; also called mAb B[NKG2D]_H2L2_IgG1_PVA_/S267K) VH: EVQLVQSGAEVKKPGESLRISCKASGYTFTSYWMNWVRQMPGKGLEWMGRIDPYDSETHYNPSFQGHVTISVDKSISTAYLQWSSLKASDTAMYYCAKMGDYSFDYWGQGTLVTVSS VL: DIQLTQSPDSLAVSLGERATINCKASGNIHNYLAWYQQKPGQSPKVLVYNAKTLADGVPSRFSGSGSGTDYTLTISSLQAEDVAVYYCQHFWSTTWTFGGGTKVEIKR', 'M⁻¹ s⁻¹', '1.73e+06'),
  ('XENP27610 (antibody, human IgG1, kappa, V domains shown, humanized bivalent anti-NKG2D mAb, IgG1 with ablation variants; also called mAb C[NKG2D]_H2L2_IgG1_PVA_/S267K) VH: QVQLVQSGAEVKKPGASVKVSCKVSGFSLTIYGVHWVRQAPGQGLEWMGVIWSGGSTDYNAKFQGRVTMTKDNSKRTVYMELSSLRSEDTAVYYCSRKSHDGYYGVMDYWGQGTTVTVSS VL: DIQLTQSPSSLSASVGDRVTITCRASQSIGTSIHWYQQKPGKSPKLLIKYASESISGIPSRFSGSGSGTDFTLTISSLQPEDFATYYCQQSNTWPLTFGAGTKVEIKR', 'M⁻¹ s⁻¹', 727000),
  ('XENP27601 (antibody, human IgG1, kappa, V domains shown, humanized bivalent anti-NKG2D mAb, IgG1 with ablation variants; also called mAb B[NKG2D]_H2L1_IgG1_PVA_/S267K) VH: EVQLVQSGAEVKKPGESLRISCKASGYTFTSYWMNWVRQMPGKGLEWMGRIDPYDSETHYNPSFQGHVTISVDKSISTAYLQWSSLKASDTAMYYCAKMGDYSFDYWGQGTLVTVSS VL: DIQLTQSPSSLSASVGDRVTITCRASGNIHNYLAWYQQKPGKSPKVLVYNAKTLADGVPSRFSGSGSGTDYTLTISSLQPEDFATYYCQHFWSTTWTFGGGTKVEIKR', 'M⁻¹ s⁻¹', '1.23e+06');

Task: Check the records and state kon for XENP27605 (antibody, human IgG1, kappa, V domains shown, humanized bivalent anti-NKG2D mAb, IgG1 with ablation variants; also called mAb B[NKG2D]_H3_L1.1_IgG1_PVA_/S267K) VH: EVQLVESGGGLVQPGGSLRLSCAASGYTFTSYWMNWVRQAPGKGLVWVSRIDPYDSETHYNQKVKGRFTISVDKAKSTAYLQMNSLRAEDTAVYYCAKMGDYSFDYWGQGTLVTVSS VL: DIQLTQSPSSLSASVGDRVTITCRASGNIHNYLAWYQQKPGKSPKVLVYNAKTLADGVPSRFSGSGSGTDYTLTISSLQPEDFATYYCQHFWSTPWTFGGGTKVEIKR
Result: 2.88e+06
